Every entry's value here was drawn from patent US20230348426A1.

# Target: human FPR1 (Homo sapiens (Human))
# Sequence (P21462 whole entry): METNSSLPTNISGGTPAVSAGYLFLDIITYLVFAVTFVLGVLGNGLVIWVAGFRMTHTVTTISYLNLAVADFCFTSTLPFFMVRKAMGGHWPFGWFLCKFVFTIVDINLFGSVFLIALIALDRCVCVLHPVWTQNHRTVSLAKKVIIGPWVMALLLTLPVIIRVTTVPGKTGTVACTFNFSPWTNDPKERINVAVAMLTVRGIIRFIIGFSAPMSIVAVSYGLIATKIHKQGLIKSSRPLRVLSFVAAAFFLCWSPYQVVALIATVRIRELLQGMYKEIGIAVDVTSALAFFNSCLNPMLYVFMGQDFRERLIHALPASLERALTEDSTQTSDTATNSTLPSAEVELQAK
# Measurement protocol: FPR1 cyclic adenosine monophosphate (cAMP) assay
# Recorded conditions: CHO cells overexpressing human FPR1; forskolin 10 µM; inhibition of cAMP production; read-out: hFPR1 cAMP EC50
This listing pairs molecules with measured pEC50.
Quick note: pEC50 values are minus log10 of concentrations in mol/L.

In the examples that follow, each entry is paired with its recorded pEC50.
| Molecule | Assay result |
| --- | --- |
| COc1cc(F)c([C@@H]2CN(c3cc(C(F)(F)F)cn(C)c3=O)C(=O)[C@H]2NC(=O)c2ccc(OC(F)F)cc2)c(F)c1 [Example 168] | 5.80 |
| COc1cc(F)c([C@@H]2CN(c3cccc(OC(F)F)c3)C(=O)[C@H]2NC(=O)c2ccc(OC(F)(F)F)cc2)c(F)c1 [Example 184] | 8.01 |
| COc1cc(F)c([C@@H]2CN(c3nccc(NCCO)c3C(F)(F)F)C(=O)[C@H]2NC(=O)c2ccc(Cl)cc2)c(F)c1 [Example 419] | 6.96 |

Prompt: Can you share its pEC50? I mean this molecule: Cc1ccn(CC(F)F)c(=O)c1N1C[C@@H](c2ccc(Cl)cc2)[C@H](NC(=O)c2ccc(OC(F)F)cc2)C1=O [Example 415]
Completion: 8.52
